Target: T1, biotinylated p53β peptide (human, also: biotinylated, site not given here)
T1 construct: also called biotinylated p53-aggregating peptide
T1 peptide: ILTIITL
Assay: peptide-binding assay: peptide spots on membrane, biotinylated p53β peptide, streptavidin-HRP;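 further: Membrane-bound synthesized peptide spots exposed to the biotinylated p53 aggregation-prone peptide, bound material revealed via streptavidin-HRP and chemiluminescence, spot signal reflecting binding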
Where no end group is shown, it is not given here.
experimentalEndpoint: Binding intensity (normalized)

[
  {
    "binder": "ILQIITE (spot-synthesized on membrane; also called position Nr 44) [DHX29_HUMAN peptide ILQIITE]",
    "experimentalEndpoint": "Binding intensity (normalized)",
    "recordedValue": 15.6
  },
  {
    "binder": "RRPILTIITLEDGS (spot-synthesized on membrane; longer peptide that holds ILTIITL; also called position Nr 2) [Control peptide RRPILTIITLEDGS]",
    "experimentalEndpoint": "Binding intensity (normalized)",
    "recordedValue": 30.9
  },
  {
    "binder": "ILLIITD (spot-synthesized on membrane; also called Copine-2 (CPNE2) segment; position Nr 42) [CPNE2_HUMAN peptide ILLIITD]",
    "experimentalEndpoint": "Binding intensity (normalized)",
    "recordedValue": 111
  },
  {
    "binder": "VLTISTL (spot-synthesized on membrane; also called position Nr 10) [BPTF_HUMAN peptide VLTISTL]",
    "experimentalEndpoint": "Binding intensity (normalized)",
    "recordedValue": 6.72
  },
  {
    "binder": "ILCDITL (spot-synthesized on membrane; also called position Nr 43) [KLH32_HUMAN peptide ILCDITL]",
    "experimentalEndpoint": "Binding intensity (normalized)",
    "recordedValue": 7.89
  },
  {
    "binder": "MLTEITL (spot-synthesized on membrane; also called position Nr 19) [GCDH_HUMAN peptide MLTEITL]",
    "experimentalEndpoint": "Binding intensity (normalized)",
    "recordedValue": 3.03
  },
  {
    "binder": "ILIIVTL (spot-synthesized on membrane; also called p63β; position Nr 16) [P63_HUMAN peptide ILIIVTL]",
    "experimentalEndpoint": "Binding intensity (normalized)",
    "recordedValue": 92
  },
  {
    "binder": "ITTGITL (spot-synthesized on membrane; also called CGRF1 segment; position Nr 30) [CGRF1_HUMAN peptide ITTGITL]",
    "experimentalEndpoint": "Binding intensity (normalized)",
    "recordedValue": 36.7
  }
]
